These entries and their values trace back to patent US6635641B2.

- target under test: phosphorylated VEGF-R2Δ50 (FLVK-P) (Homo sapiens, UniProt P35968, DEL940-989/E990V)
- Construct: VEGF-R2Δ50 contains residues 806-939 and 990-1171; made in house; host or cells: baculovirus/insect cells
- Sequence (P35968 with tags, fused parts or gaps DEL940-989/E990V limits assumed): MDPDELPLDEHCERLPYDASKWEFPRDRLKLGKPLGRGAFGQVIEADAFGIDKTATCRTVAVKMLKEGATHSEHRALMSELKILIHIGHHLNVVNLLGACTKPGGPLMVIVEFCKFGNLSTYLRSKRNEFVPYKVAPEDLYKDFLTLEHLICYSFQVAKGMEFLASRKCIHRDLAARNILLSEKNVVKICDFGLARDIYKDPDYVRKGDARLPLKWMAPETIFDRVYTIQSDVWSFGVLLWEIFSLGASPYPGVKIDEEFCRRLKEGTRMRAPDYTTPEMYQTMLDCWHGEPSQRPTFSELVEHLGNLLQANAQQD
- assay explanation: VEGF-R2 coupled spectrophotometric assay, phosphorylated construct (FLVK-P)
- Type: biochemical
- stated conditions: @ 50 nM; read-out: FLVK-P percent inhibition
Counter-ions that a name gives are not always drawn.
Each entry below carries its recorded inhibition at 0.05 µM.
measure: inhibition at 0.05 µM (%)

- compound: "Cc1ccc2cc(NC(=O)c3cccc(CCc4cncc5ccccc45)c3)ccc2n1 [Example S-4]"
  measure: "inhibition at 0.05 µM"
  observed: 20
- compound: "Cc1cc(C)nc(NC(=O)c2cccc(CCc3cncc4ccccc34)c2)c1 [Example S-6]"
  measure: "inhibition at 0.05 µM"
  observed: 6
- compound: "Cc1cc(NC(=O)c2cccc(OCc3cnc(NNC(=O)OC(C)(C)C)c4ccccc34)c2)ccc1C(C)C [Example P-1]"
  measure: "inhibition at 0.05 µM"
  observed: 4
- compound: "COc1cccc(/C=N/Nc2ncc(COc3cccc(C(=O)Nc4ccc(C(C)C)c(C)c4)c3)c3ccccc23)c1 [Example Q-1]"
  measure: "inhibition at 0.05 µM"
  observed: 17
- compound: "C=CCc1cc(NC(=O)c2cccc(OCc3cncc4ccccc34)c2)cc(CC=C)c1C [Example R-1]"
  measure: "inhibition at 0.05 µM"
  observed: 49
- compound: "CC(=O)Nc1ccc(CCc2cccc(C(=O)Nc3ccc(N4CCNCC4)c(C(F)(F)F)c3)c2)cn1 [AA-1, dihydrochloride]"
  measure: "inhibition at 0.05 µM"
  observed: 59
